tested on: KM12; assay: NCI tumour cell line growth inhibition, 48 h
Activity calls are given as the source filed them. No stated cut-off is given here; in the data, active = GI50 up to about 1.1 µM and inactive = higher.
measuredParameter: GI50

Answered examples (2):
testSmiles: O=C(O)Cn1ccc(=O)c2ccc([N+](=O)[O-])cc21
testedSystem: KM12
measuredParameter: GI50
resultValue: > 100 µM (inactive)

testSmiles: Nc1ccc2c(c1)Oc1c(F)c(F)cc3c(=O)c(C(=O)O)cn-2c13
testedSystem: KM12
measuredParameter: GI50
resultValue: 23.6 µM (inactive)

Note: attention shifts to another entry.
Q. Please provide the recorded GI50 for `CN(C)c1ccc(/C=C/C(=O)c2ccc(O)cc2)cc1` , tested on KM12.
A. 3.25 µM (inactive)

* * *

tested on: SF-268; assay: NCI tumour cell line growth inhibition, 48 h
The source made the active and inactive calls. No stated cut-off is given here; in the data, active = GI50 up to about 1.1 µM and inactive = higher.
measuredParameter: GI50

Answered examples (5):
compound: Cc1ccc2c(c1)C(=C(C#N)C#N)CCCS2(=O)=O
GI50: > 100 µM (inactive)
--
compound: CCSc1c2ccccc2c(-c2nc(F)nc(F)n2)n1CCc1ccccc1
GI50: > 100 µM (inactive)
--
compound: CC(=O)OCC1OC(O[C@@H]2C[C@H]3C(C)(C)[C@H](OC(C)=O)CC[C@]3(C)[C@H]3CC[C@@]45C[C@H](O)C[C@H](C)[C@@H]4CC=C5[C@@]32C)C(O)C(O)C1O (stereo partly specified)
GI50: 4.01 µM (inactive)
--
compound: Cn1c2c(c3ccccc31)CCN(CCCN1CCN(c3cccc(Cl)c3)CC1)C2=O
GI50: 15.6 µM (inactive)
--
compound: O=[N+]([O-])c1cccc2nc3ccccc3c(NCCCN3CCOCC3)c12
GI50: 0.0226 µM (active)

Q. Data request, read-out GI50, for CC(C)C1(C)N=C(C(F)(F)F)c2cc(C(=O)C(F)(F)F)c3ccccc3c2N1 (stereo unspecified)
A. 3.02 µM (inactive)

Q. Let us now turn to CCN1CCC(C)OP1(=O)Cc1ccccc1 (stereo unspecified)
A. > 100 µM (inactive)

Q. Let us now turn to `ClCc1nc2ccccc2[nH]1`
A. > 100 µM (inactive)

Q. Let us now turn to CC1OC(O[C@H]2CC[C@]3(C)[C@H]4CC=C5[C@@H]6[C@@H](C)[C@H](C)CC[C@]6(C(=O)OC6OC(CO)C(O)C(O)C6O)CC[C@@]5(C(=O)O)[C@]4(C)CC[C@H]3C2(C)C)C(O)C(O)C1O (stereo partly specified)
A. > 100 µM (inactive)

Q. Let us now turn to `COc1cccc(NC(=O)CC(=O)n2nc(-c3ccccc3)c(/N=N/c3ccc(Cl)cc3)c2-c2ccccc2)c1`
A. 11.6 µM (inactive)

Q. Let us now turn to `COC(=O)C1(Cc2ccccc2)Cc2cc3c(cc2C1)CCC3`
A. 41.4 µM (inactive)

* * *

system: A549; assay: NCI tumour cell line growth inhibition, 48 h
Activity calls are given as the source filed them. Cut-off read from the data, not from the text of the source: active = GI50 up to about 1.1 µM and inactive = higher.
GI50 values, listed per item

compound: O=C(Nc1ccccc1Br)c1cccc([N+](=O)[O-])c1O
testedSystem: A549
resultValue: 3.37 µM (inactive)

compound: C=C1CC(Cn2ccc(=O)[nH]c2=O)(c2ccc(OC)cc2)OC1=O (stereo not drawn)
testedSystem: A549
resultValue: 24 µM (inactive)

Q. Please provide the recorded GI50 for `O/N=C(/C(Cl)=C(Cl)Cl)C(Cl)Cl` , tested on A549.
A. > 100 µM (inactive)

* * *

tested on: HT-29; experiment: NCI tumour cell line growth inhibition, 48 h
Active and inactive are the calls of the source. Cut-off read from the data, not from the text of the source: active = GI50 up to about 1.1 µM and inactive = higher.
measuredParameter: GI50

molecule: Cc1ccc(Nc2nc(=O)[nH]c(=O)[nH]2)cc1N=[N+]=[N-]
GI50: > 100 µM (inactive)

molecule: O=C1C=CC(=NNc2ccccc2)C=CC1=O
GI50: 13.6 µM (inactive)

molecule: OCCCCn1cnc2c(O)ncnc21
GI50: > 100 µM (inactive)

Q. Data request, read-out GI50, for `CC(C)=Cc1cc(C(=O)NCCNC(=O)c2cc(C=C(C)C)nc(NC#N)n2)nc(NC#N)n1`
A. > 100 µM (inactive)

Q. Let us now turn to `Cc1nc(Nc2ccccc2Cl)sc1C(=O)CC(=O)C(=O)Nc1c(Cl)cccc1Cl`
A. 25.4 µM (inactive)

Q. Let us now turn to `c1ccc2cc3c(NC4=NCCO4)cccc3cc2c1`
A. 29.9 µM (inactive)

Q. Let us now turn to CC1=C[P+](Cc2ccccc2)(c2ccccc2)CC1 (stereo unspecified)
A. 77.3 µM (inactive)

Q. Let us now turn to `COc1ccc2c(c1)/C(=C\c1c(Cl)n(-c3ccccc3)c3ccccc13)C(=O)N2`
A. 3.48 µM (inactive)

Q. Let us now turn to `S=C1SC(=N\c2ccccc2)/C(=N/c2ccccc2)N1c1ccccc1`
A. 87.7 µM (inactive)

Q. Let us now turn to `Cc1ccc(C2=C(c3ccccc3)C(=O)C(c3ccccc3)=C2c2ccc(C)cc2)cc1`
A. 33.5 µM (inactive)

Q. Let us now turn to C=C1CC(Cn2ccc(=O)[nH]c2=O)(c2ccc(OC)cc2)OC1=O (stereo unspecified)
A. 13.2 µM (inactive)

* * *

GI50 values, listed per item
system: TK-10; test: NCI tumour cell line growth inhibition, 48 h
Activity calls are given as the source filed them. Rule as the data show it: active = GI50 up to about 1.1 µM and inactive = higher.

Answered examples (4):
molecule: CC1=C[P+](Cc2ccccc2)(c2ccccc2)CC1 (configuration not stated)
GI50: 98.9 µM (inactive)

molecule: COc1cc2nc(-c3cccs3)nc(Cl)c2cc1OC
GI50: > 100 µM (inactive)

molecule: O=C(O)c1ccccc1/C=N/N=C1NCCCCN1
GI50: > 100 µM (inactive)

molecule: COC(=O)C1=CC2C(=O)c3ccccc3C1(c1ccccc1)N2C1CCCCC1 (configuration not stated)
GI50: 30.1 µM (inactive)

Q. Data request, read-out GI50, for O=C1C2C=CC1C1C(=O)OC(=O)C21 (configuration not stated)
A. > 100 µM (inactive)

Q. Let us now turn to `O=S(=O)(O)c1ccc2cccc(/N=N\c3c(O)ccc4ccccc34)c2c1`
A. > 100 µM (inactive)

Q. Let us now turn to `CN(C)/N=N/c1ccc(C(N)=O)cc1`
A. > 100 µM (inactive)

Q. Let us now turn to `CCOP(=O)(/C=C\n1ccc(=O)[nH]c1=O)OCC`
A. > 100 µM (inactive)

Q. Let us now turn to O=[N+]([O-])c1ccc(C2=Nc3ccccc3SC(c3ccccc3)C2)cc1 (configuration not stated)
A. 38.1 µM (inactive)

Q. Let us now turn to `CCN(CC)CCOc1ccc(N2Cc3cc(OC)c(OC)cc3C2=O)cc1`
A. > 100 µM (inactive)

Q. Let us now turn to `CN(N)c1nc(N)c(C#N)c(C#N)c1C#N`
A. > 10 µM (inactive)

* * *

system: OVCAR-8; assay: NCI tumour cell line growth inhibition, 48 h
Active and inactive are the calls of the source. No stated cut-off is given here; in the data, active = GI50 up to about 1.1 µM and inactive = higher.
measuredParameter: GI50

Answered examples (5):
compound: Cc1cn(Cc2cccc(C3=NCCCN3)c2)c(=O)n(Cc2cccc(C3=NCCCN3)c2)c1=O
testedSystem: OVCAR-8
GI50: > 100 µM (inactive)
--
compound: C1CSCCCSCCCSCCCSCCCSC1
testedSystem: OVCAR-8
GI50: 29 µM (inactive)
--
compound: CC1=CC(=O)N(n2c(Cc3ccc(Cl)cc3)n[nH]c2=O)C1=O
testedSystem: OVCAR-8
GI50: 55.5 µM (inactive)
--
compound: COc1ccc2c3c(n(Cc4ccccc4)c(=O)c2c1)-c1cc(OC)c(OC)cc1C3C (centres undefined)
testedSystem: OVCAR-8
GI50: 19.8 µM (inactive)
--
compound: Oc1ccc2c(c1)CCc1c-2n(CCN2CCOCC2)c2ccc(O)cc12
testedSystem: OVCAR-8
GI50: 20.2 µM (inactive)

Q. Data request, read-out GI50, for `O=C(/C(=C/c1cccs1)c1ccccc1)c1ccccc1`
A. > 100 µM (inactive)

Q. Let us now turn to `Cc1cc(O)nc(CNC(=O)c2cccc3ccccc23)n1`
A. > 100 µM (inactive)

Q. Let us now turn to O=C(O)c1cc2c(cc1CC(Cc1ccccc1)C(=O)O)CCC2 (centres undefined)
A. > 100 µM (inactive)

Q. Let us now turn to `O=C1NC(=S)N/C1=C/c1c(-c2ccccc2)[nH]c2ccccc12`
A. 14.4 µM (inactive)

Q. Let us now turn to `CN(N=O)c1ccc(/C=C/c2ccnc3ccccc23)cc1`
A. 58.1 µM (inactive)

Q. Let us now turn to `O=C(O)c1cc(O)c2c(c1)Cc1cccc(O)c1C2=O`
A. 21.3 µM (inactive)

Q. Let us now turn to NC1CC(=O)c2csc(Cl)c21 (centres undefined)
A. 6.61 µM (inactive)

* * *

tested on: NCI-H522; assay: NCI tumour cell line growth inhibition, 48 h
Active and inactive are the calls of the source. No stated cut-off is given here; in the data, active = GI50 up to about 1.1 µM and inactive = higher.
# valid calls are active, inactive; nothing else

Q. In this assay, the call recorded for `O=S(=O)(O)c1ccc2cccc(/N=N\c3c(O)ccc4ccccc34)c2c1` was what?
A. inactive

Q. Let us now turn to `CCN(CC)c1cc2c3c(c1)CCCN3CCC2`
A. inactive

Q. Let us now turn to `O=C(O)Cn1ccc(=O)c2ccc([N+](=O)[O-])cc21`
A. inactive

Q. Let us now turn to `N#C/C(=C\c1cc(Cl)cc(Cl)c1)c1ccccn1`
A. inactive

Q. Let us now turn to BrC12c3ccccc3Sc3ccccc3C1(Br)c1ccccc12 (configuration not stated)
A. inactive

Q. Let us now turn to `COc1ccccc1/C=C/c1cnccn1`
A. inactive

Q. Let us now turn to `CC[C@H](C)[C@H](NC(=O)[C@H](Cc1ccc(O)cc1)NCC(F)(F)F)C(=O)OC(C)(C)C`
A. inactive

Q. Let us now turn to `N#CC(C#N)=C1C(=O)NC(N)=C1C#N`
A. inactive

Q. Let us now turn to `Nc1n[nH]c(CCCCCCCc2nnc(N)[nH]2)n1`
A. inactive

Q. Let us now turn to `CCOc1ccc(NC(=O)C(=O)NO)cc1`
A. inactive
